- MEASUREMENT PROTOCOL: Stability in monkey liver microsomes in vitro
- Assay type: in vitro ADME
- CONDITION CONTEXT: prolongation of t1/2 in monkey liver microsomes versus Brigatinib
ASSAY METRIC: Prolonging rates (%)
One number for each entry, in %.

Some solved entries appear below for comparison.
- STRUCTURE SMILES STRING: "[2H]C1([2H])CN(C)CC([2H])([2H])N1C1CCN(c2ccc(Nc3ncc(Cl)c(Nc4ccccc4P(C)(C)=O)n3)c(OC)c2)CC1"
  UNIT ANNOTATION: "%"
  Prolonging rates: 4
- STRUCTURE SMILES STRING: "[2H]C([2H])([2H])Oc1cc(N2CCC(N3CCN(C)CC3)CC2)ccc1Nc1ncc(Cl)c(Nc2ccccc2P(C)(C)=O)n1"
  UNIT ANNOTATION: "%"
  Prolonging rates: 35
- STRUCTURE SMILES STRING: "[2H]C1([2H])CN(C2CCN(c3ccc(Nc4ncc(Cl)c(Nc5ccccc5P(C)(C)=O)n4)c(OC)c3)CC2)CC([2H])([2H])N1C"
  UNIT ANNOTATION: "%"
  Prolonging rates: 26

Which value of Prolonging rates has been reported for "[2H]C([2H])([2H])Oc1cc(N2CCC(N3CCN(C([2H])([2H])[2H])CC3)CC2)ccc1Nc1ncc(Cl)c(Nc2ccccc2P(C)(C)=O)n1" in the records? 17

====

- MEASUREMENT PROTOCOL: Stability in monkey liver microsomes in vitro
- Type: in vitro ADME
- CONDITION CONTEXT: prolongation of t1/2 in monkey liver microsomes versus Brigatinib
ASSAY METRIC: Prolonging rates
Could you write the number and then its unit?

Some solved entries appear below for comparison.
- STRUCTURE SMILES STRING: "[2H]C([2H])([2H])N1CCN(C2CCN(c3ccc(Nc4ncc(Cl)c(Nc5ccccc5P(C)(C)=O)n4)c(OC)c3)CC2)CC1"
  RESULT: "39%"
- STRUCTURE SMILES STRING: "[2H]C([2H])([2H])N1C([2H])([2H])CN(C2CCN(c3ccc(Nc4ncc(Cl)c(Nc5ccccc5P(C)(C)=O)n4)c(OC)c3)CC2)CC1([2H])[2H]"
  RESULT: "34%"

Continue with the compound presented below.
Which value of Prolonging rates has been reported for "[2H]C1([2H])N(C)C([2H])([2H])C([2H])([2H])N(C2CCN(c3ccc(Nc4ncc(Cl)c(Nc5ccccc5P(C)(C)=O)n4)c(OC)c3)CC2)C1([2H])[2H]" in the records? 31%

====

- MEASUREMENT PROTOCOL: Stability in monkey liver microsomes in vitro
- Type: in vitro ADME
- CONDITION CONTEXT: monkey liver microsomes 0.5 mg/mL protein, NADPH, 37° C., 1 μmol/L test compound
For each entry below, report its half-life at 0.01 μmol/L value.
Numbers only, in h.

Some solved entries appear below for comparison.
- STRUCTURE SMILES STRING: "[2H]C([2H])([2H])Oc1cc(N2CCC(N3CCN(C([2H])([2H])[2H])CC3)CC2)ccc1Nc1ncc(Cl)c(Nc2ccccc2P(C)(C)=O)n1"
  ASSAY METRIC: "half-life at 0.01 μmol/L"
  UNIT ANNOTATION: "h"
  READOUT NUMBER: 3.32
- STRUCTURE SMILES STRING: "[2H]C1([2H])CN(C2CCN(c3ccc(Nc4ncc(Cl)c(Nc5ccccc5P(C)(C)=O)n4)c(OC)c3)CC2)CC([2H])([2H])N1C"
  ASSAY METRIC: "half-life at 0.01 μmol/L"
  UNIT ANNOTATION: "h"
  READOUT NUMBER: 3.57
- STRUCTURE SMILES STRING: "[2H]C1([2H])N(C)C([2H])([2H])C([2H])([2H])N(C2CCN(c3ccc(Nc4ncc(Cl)c(Nc5ccccc5P(C)(C)=O)n4)c(OC)c3)CC2)C1([2H])[2H]"
  ASSAY METRIC: "half-life at 0.01 μmol/L"
  UNIT ANNOTATION: "h"
  READOUT NUMBER: 3.72

Report half-life at 0.01 μmol/L for every entry below.
1. [2H]C([2H])([2H])N1C([2H])([2H])CN(C2CCN(c3ccc(Nc4ncc(Cl)c(Nc5ccccc5P(C)(C)=O)n4)c(OC)c3)CC2)CC1([2H])[2H]
2. [2H]C([2H])([2H])N1CCN(C2CCN(c3ccc(Nc4ncc(Cl)c(Nc5ccccc5P(C)(C)=O)n4)c(OC)c3)CC2)CC1
3. COc1cc(N2CCC(N3CCN(C)CC3)CC2)ccc1Nc1ncc(Cl)c(Nc2ccccc2P(C)(C)=O)n1
4. [2H]C([2H])([2H])Oc1cc(N2CCC(N3CCN(C)CC3)CC2)ccc1Nc1ncc(Cl)c(Nc2ccccc2P(C)(C)=O)n1
5. [2H]C1([2H])CN(C)CC([2H])([2H])N1C1CCN(c2ccc(Nc3ncc(Cl)c(Nc4ccccc4P(C)(C)=O)n3)c(OC)c2)CC1

1. 3.78
2. 3.93
3. 2.83
4. 3.82
5. 2.93
